System: HL60
Test: alamarBlue cytotoxicity assay, HL60
Type: cell-based, human
Settings: 72 h of incubation
experimentalReadout: IC50

Inquiry: Consider the molecule shown here: CN(C)c1ccccc1CN1CCCN(Cc2ccccc2N(C)C)C1c1ccncc1 [GANT61] What is its recorded IC50?
Reply text: > 116 µM

###

System: HT-29
Test: alamarBlue cytotoxicity assay, HT-29
Type: cell-based, human
Conditions: HT-29, alamarBlue, 72 h of incubation
experimentalReadout: IC50

Inquiry: Consider the molecule shown here: CN(C)c1ccccc1CN1CCCN(Cc2ccccc2N(C)C)C1c1ccncc1 What is its recorded IC50?
Reply text: > 116 µM

###

Tested on: HaCat
Test: alamarBlue cytotoxicity assay, HaCat
Assay type: cell-based, human
Conditions: Homo sapiens, 72 h of incubation
experimentalReadout: IC50 (nM)
Give bare numbers, in nM.

Inquiry: Consider the compound shown here: COc1cccc2c1C(=O)c1c(O)c3c(c(O)c1C2=O)C[C@@](O)(C(=O)CO)C[C@@H]3O[C@H]1C[C@H](N)[C@H](O)[C@H](C)O1 What is its recorded IC50?
Reply text: 100

###

System: SCC4
Test: alamarBlue cytotoxicity assay, SCC4
Format: cell-based, human
Conditions: Homo sapiens, SCC-4, 72 h of incubation
experimentalReadout: pIC50
Give bare numbers, as −log10 of the molar value.

Inquiry: Consider the compound shown here: COc1cccc2c1C(=O)c1c(O)c3c(c(O)c1C2=O)C[C@@](O)(C(=O)CO)C[C@@H]3O[C@H]1C[C@H](N)[C@H](O)[C@H](C)O1 [Doxorubicin] What is its recorded pIC50?
Reply text: 7.15

###

Tested on: HL60
Assay: alamarBlue cytotoxicity assay, HL60
Type: cell-based, human
Conditions: Homo sapiens, HL-60, 72 h of incubation
experimentalReadout: IC50 (µM)
One number for each entry, in µM.

Inquiry: Consider the compound shown here: COc1cccc2c1C(=O)c1c(O)c3c(c(O)c1C2=O)C[C@@](O)(C(=O)CO)C[C@@H]3O[C@H]1C[C@H](N)[C@H](O)[C@H](C)O1 [Doxorubicin] What is its recorded IC50?
Reply text: 0.01

###

Test system: NOF
Test: alamarBlue cytotoxicity assay, normal oral fibroblasts NOF
Type: cell-based
Details: Homo sapiens, Fibroblast, 72 h of incubation
experimentalReadout: IC50 (µM)
Give bare numbers, in µM.

Inquiry: Checklist item: IC50 tested on NOF, entry O=c1[nH]cc(F)c(=O)[nH]1 , value?
Reply text: 39.6

###

System: HT-29
Assay: alamarBlue cytotoxicity assay, HT-29
Assay type: cell-based, human
Conditions: Homo sapiens; HT-29, alamarBlue, 72 h of incubation
experimentalReadout: IC50

Inquiry: Consider the compound shown here: COc1cccc2c1C(=O)c1c(O)c3c(c(O)c1C2=O)C[C@@](O)(C(=O)CO)C[C@@H]3O[C@H]1C[C@H](N)[C@H](O)[C@H](C)O1 [Doxorubicin] What is its recorded IC50?
Reply text: 300 nM

###

System: SCC15
Assay: alamarBlue cytotoxicity assay, SCC15
Assay type: cell-based, human
Settings: Homo sapiens, SCC-15, 72 h of incubation
experimentalReadout: pIC50
Answers are plain numbers, as −log10 of the molar value.

Inquiry: Consider the compound shown here: COc1cccc2c1C(=O)c1c(O)c3c(c(O)c1C2=O)C[C@@](O)(C(=O)CO)C[C@@H]3O[C@H]1C[C@H](N)[C@H](O)[C@H](C)O1 [Doxorubicin] What is its recorded pIC50?
Reply text: 5.82

###

System: SCC4
Assay: alamarBlue cytotoxicity assay, SCC4
Format: cell-based, human
Conditions: 72 h of incubation
experimentalReadout: pIC50
Answers are plain numbers, as −log10 of the molar value.

Inquiry: Consider the molecule shown here: CN(C)c1ccccc1CN1CCCN(Cc2ccccc2N(C)C)C1c1ccncc1 What is its recorded pIC50?
Reply text: 3.96

###

Please go through the items and note down their IC50.
Tested on: CAL27
Assay: alamarBlue cytotoxicity assay, CAL27
Assay type: cell-based, human
Conditions: Homo sapiens, CAL-27, 72 h of incubation
Numbers only, in µM.

Inquiry: Consider the compound shown here: O=c1[nH]cc(F)c(=O)[nH]1 What is its recorded IC50?
Reply text: 30.8

# input for lookup
Inquiry: Consider the compound shown here: COc1cccc2c1C(=O)c1c(O)c3c(c(O)c1C2=O)C[C@@](O)(C(=O)CO)C[C@@H]3O[C@H]1C[C@H](N)[C@H](O)[C@H](C)O1 What is its recorded IC50?
Reply text: 3.09

###

Test system: CAF 2
Assay: alamarBlue cytotoxicity assay, cancer-associated fibroblasts CAF 2
Format: cell-based, human
Details: CAF 2, alamarBlue, 72 h of incubation
experimentalReadout: IC50 (µM)
Numbers only, in µM.

Inquiry: Consider the compound shown here: CN(C)c1ccccc1CN1CCCN(Cc2ccccc2N(C)C)C1c1ccncc1 [GANT61] What is its recorded IC50?
Reply text: 71.5

Where do the numbers come from? From paper PMC7503713.
